System: L6
Assay: Induction of glucose uptake in rat L6 cells pulsed with C14-deoxy glucose at 10 uM after 24 hrs in presence of insulin relative to control
Assay type: functional
Grouping by measured fold change (FC) is done with the following cut points: lower range = under 1, middle range = from 1 up to 2, upper range = 2 and over

Solved entries (count: 3):
Molecule	Assigned label
CN(C(=O)Cc1nn(C)c(=O)c2ccccc12)c1nc(-c2ccccc2)cs1	middle range
CN(CCOc1ccc(CC2SC(=O)NC2=O)cc1)c1ccccn1 (configuration not stated)	middle range
Cn1nc(CC(=O)Nc2ncc(-c3ccccc3)c(=O)[nH]2)c2ccccc2c1=O	middle range

Input line: Kindly state the category for this molecule: Cc1sc(NC(=O)Cc2nn(C)c(=O)c3ccccc23)nc1-c1ccc(Br)cc1
Output line: upper range

Input line: Kindly state the category for this molecule: Cn1nc(CC(=O)Nc2cc(-c3ccc(F)cc3)on2)c2ccccc2c1=O
Output line: middle range

Input line: Kindly state the category for this molecule: Cn1nc(CC(=O)Nc2nc(-c3ccc(Br)cc3)cs2)c2ccccc2c1=O
Output line: upper range

Input line: Kindly state the category for this molecule: O=C(O)Cc1nn(CC(=O)c2ccccc2)c(=O)c2ccccc12
Output line: lower range

====

System: L6
Experiment: Induction of glucose uptake in rat L6 cells pulsed with C14-deoxy glucose at 10 uM after 24 hrs in presence of insulin relative to control
Type: functional
Measurement label: fold change (FC)
Hey, just send me the number, nothing else.

Cn1nc(CC(=O)Nc2nccs2)c2ccccc2c1=O 1.7
Cn1nc(CC(=O)Nc2nc(-c3ccc(Cl)cc3)cs2)c2ccccc2c1=O 3.4

Input line: Provide fold change (FC) value for the following compound: Cn1nc(CC(=O)Nc2nccc(=O)[nH]2)c2ccccc2c1=O
Output line: 1.2

Input line: Provide fold change (FC) value for the following compound: CCOC(=O)c1sc(NC(=O)Cc2nn(C)c(=O)c3ccccc23)nc1C
Output line: 0.9

Input line: Provide fold change (FC) value for the following compound: Cn1nc(CC(=O)NCc2n[nH]c(=O)c3ccccc23)c2ccccc2c1=O
Output line: 0.8

Input line: Provide fold change (FC) value for the following compound: CCc1oc(NC(=O)Cc2nn(C)c(=O)c3ccccc23)nc1-c1ccccc1
Output line: 1

====

Tested on: L6
Assay: Induction of glucose uptake in rat L6 cells pulsed with C14-deoxy glucose at 10 uM after 24 hrs in presence of insulin relative to control
Type: functional
Measurement label: fold change (FC)
Hey, just send me the number, nothing else.

CCOC(=O)CN(C(=O)Cc1nn(C)c(=O)c2ccccc12)c1nc(-c2ccccc2)cs1 1.9
CCOC(=O)Cc1nn(CC(=O)c2ccccc2)c(=O)c2ccccc12 1.1
Cn1nc(CC(=O)Nc2nc(-c3ccccc3O)cs2)c2ccccc2c1=O 1.3
Cn1nc(CC(=O)Nc2nccc3ccccc23)c2ccccc2c1=O 4.9
Cn1nc(CC(=O)Nc2ccc(Cl)c(C(F)(F)F)c2)c2ccccc2c1=O 2
O=C(Cc1n[nH]c(=O)c2ccccc12)NNC(=O)c1nc(-c2ccccc2)cs1 0.9
COC(=O)CCCCC(=O)N(C)c1nc(-c2ccccc2)cs1 1.2
Cn1nc(CC(=O)Nc2nc(-c3ccc(F)cc3)cs2)c2ccccc2c1=O 2.7

Input line: Provide fold change (FC) value for the following compound: Cn1nc(CC(=O)Nc2nc(-c3ccc(C(F)(F)F)cc3)cs2)c2ccccc2c1=O
Output line: 3.2

Input line: Provide fold change (FC) value for the following compound: Cn1nc(CC(=O)Nc2ncc(-c3ccccc3)s2)c2ccccc2c1=O
Output line: 1.6

Input line: Provide fold change (FC) value for the following compound: O=C(Cc1n[nH]c(=O)c2ccccc12)Nc1nc(-c2ccccc2)cs1
Output line: 1.8

Input line: Provide fold change (FC) value for the following compound: O=C(Cc1nn(CCO)c(=O)c2ccccc12)Nc1nc(-c2ccccc2)cs1
Output line: 0.8

Input line: Provide fold change (FC) value for the following compound: CN(C(=O)CCCCC(=O)O)c1nc(-c2ccccc2)cs1
Output line: 0.9

Input line: Provide fold change (FC) value for the following compound: Cn1nc(CC(=O)NC23CC4CC(CC(O)(C4)C2)C3)c2ccccc2c1=O
Output line: 0.7

Input line: Provide fold change (FC) value for the following compound: Cc1sc(NC(=O)Cc2nn(C)c(=O)c3ccccc23)nc1-c1ccccc1
Output line: 3.4

Input line: Provide fold change (FC) value for the following compound: Cn1nc(CC(=O)Nc2nc(-c3ccccc3)cs2)c2ccccc2c1=O
Output line: 1.8

Input line: Provide fold change (FC) value for the following compound: COc1ccc(-c2nc(NC(=O)Cc3nn(C)c(=O)c4ccccc34)sc2C)cc1
Output line: 2.9

Input line: Provide fold change (FC) value for the following compound: COc1ccc2c(oc3ccccc32)c1NC(=O)Cc1nn(C)c(=O)c2ccccc12
Output line: 1.3

Input line: Provide fold change (FC) value for the following compound: Cn1nc(CC(=O)Nc2nc(-c3ccccc3)c(C(=O)O)s2)c2ccccc2c1=O
Output line: 1.3

Input line: Provide fold change (FC) value for the following compound: CCOC(=O)c1sc(NC(=O)Cc2nn(C)c(=O)c3ccccc23)nc1-c1ccccc1
Output line: 1.3
